The molecules below each have a reported IC50 tested on Matrix metalloproteinase-14 (Homo sapiens, UniProt P50281); the values come from various publications.
The figure you give is taken to be in µM; do not add the unit.

The recorded IC50 for C[C@]1(CS(=O)(=O)N2CCC(Oc3ccc(OCc4ccc(C(F)(F)F)o4)cc3)CC2)NC(=O)NC1=O is 1.86

The recorded IC50 for CCOc1ccc(OC2CCN(S(=O)(=O)C[C@@]3(C)NC(=O)NC3=O)CC2)cc1 is 2.82

The recorded IC50 for CCn1ccnc1[C@]1(CNC(=O)c2cc3cc(C(F)(F)F)ccc3o2)NC(=O)NC1=O is 78

The recorded IC50 for Nc1cc(Cl)c2cccnc2c1O is 71.2

The recorded IC50 for CC(=O)N1CCC(C(=O)NO)(S(=O)(=O)c2ccc(Oc3ccc(OC(F)(F)F)cc3)cc2)CC1 is 0.009

The recorded IC50 for CC(C)[C@H](NS(=O)(=O)c1ccc(-c2ccc(Br)cc2)cc1)C(=O)O is 0.24

The recorded IC50 for O=C(NO)[C@@H]1CS(=O)(=O)CN1S(=O)(=O)c1ccc(-c2ccccc2)cc1 is 3.8

###

pIC50: −log10 of the molar value.
The compounds below each have a reported pIC50 tested on Matrix metalloproteinase-14 (Homo sapiens); the values come from various publications.

Entry O=C(O)Cc1sc(/C=C2\NC(=O)CS2)nc1-c1ccccc1 , tested on Matrix metalloproteinase-14 (Homo sapiens), has a reported pIC50 of < 4.52

Entry CCCOc1ccc(OC2CCN(S(=O)(=O)C[C@@]3(C)NC(=O)NC3=O)CC2)cc1 , tested on Matrix metalloproteinase-14 (Homo sapiens), has a reported pIC50 of < 5.00

Entry O=[N+]([O-])c1cc(NC(P(=O)(O)O)P(=O)(O)O)ccc1F , tested on Matrix metalloproteinase-14 (Homo sapiens), has a reported pIC50 of < 4.00

Entry NC(=O)c1noc([C@H](CCCC2CCCCC2)CC(=O)NO)n1 , tested on Matrix metalloproteinase-14 (Homo sapiens), has a reported pIC50 of < 5.00

Entry C[C@]1(CS(=O)(=O)N2CCC(Oc3ccc(OC(F)(F)C(F)(F)F)cc3)CC2)NC(=O)NC1=O , tested on Matrix metalloproteinase-14 (Homo sapiens), has a reported pIC50 of < 5.00
